Values from patent US10413557B2

Below is a list of entries, each paired with its recorded inhibition at 1 µM value.
Molecular target: recombinant human 17β-HSD2 (Homo sapiens, UniProt P37059)
Construct: made in house; host or cells: Sd9 (Sf9) insect cells, baculovirus (Bac to Bac Expression System)
Sequence (P37059 whole entry): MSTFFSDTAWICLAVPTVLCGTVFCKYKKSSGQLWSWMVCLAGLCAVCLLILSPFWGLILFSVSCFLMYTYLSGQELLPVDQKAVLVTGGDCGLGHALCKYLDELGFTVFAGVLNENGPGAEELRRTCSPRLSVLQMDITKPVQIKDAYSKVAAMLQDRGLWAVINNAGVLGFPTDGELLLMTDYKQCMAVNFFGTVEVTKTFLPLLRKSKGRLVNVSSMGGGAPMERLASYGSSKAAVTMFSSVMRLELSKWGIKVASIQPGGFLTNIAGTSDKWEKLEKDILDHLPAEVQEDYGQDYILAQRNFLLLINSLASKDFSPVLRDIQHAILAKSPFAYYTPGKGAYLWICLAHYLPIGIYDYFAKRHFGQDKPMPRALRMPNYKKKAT
Experiment: Inhibition of recombinant human 17β-HSD2 (conversion of 3H-estradiol to estrone, HPLC)
Format: biochemical
Details: inhibitor 1 μM; 50 nM estradiol, 1 mM NADH, 30 min RT
Readout kind: inhibition at 1 µM (%)

* Cc1cnc(NC(=O)CC[C@@H]2C/C(=N\O)[C@@]3(C)CCC4c5cc(Br)c(O)c(Br)c5CCC4C23)s1 (stereo partly shown) | 28
* CO/N=C1\C[C@@H](CCC(=O)Nc2ncc(C)s2)C2C3CCc4cc(O)c([N+](=O)[O-])cc4C3CC[C@]12C (stereo partly shown) | 3
* CO/N=C1\C[C@@H](CCC(=O)Nc2ncc(C)s2)C2C3CCc4c(ccc(O)c4I)C3CC[C@]12C (stereo partly shown) | 0
* Cc1cnc(NC(=O)CC[C@@H]2C/C(=N\O)[C@@]3(C)CCC4c5ccc(O)cc5CCC4C23)s1 (stereo partly shown) | 4
* Cc1cnc(NC(=O)CC[C@@H]2C/C(=N\O)[C@@]3(C)CCC4c5cc(Cl)c(O)cc5CCC4C23)s1 (stereo partly shown) | 21
* CO/N=C1\C[C@@H](CCC(=O)Nc2ncc(C)s2)C2C3CCc4c(ccc(O)c4C#N)C3CC[C@]12C (stereo partly shown) | 0
* CO/N=C1\C[C@@H](CCC(=O)Nc2ncc(C)s2)C2C3CCc4c(ccc(O)c4Cl)C3CC[C@]12C (stereo partly shown) | 5

---

Target: recombinant human 17β-HSD1 (Homo sapiens, UniProt P14061)
Construct: made in house; host or cells: Sd9 (Sf9) insect cells, baculovirus (Bac to Bac Expression System)
Sequence (P14061 1-328): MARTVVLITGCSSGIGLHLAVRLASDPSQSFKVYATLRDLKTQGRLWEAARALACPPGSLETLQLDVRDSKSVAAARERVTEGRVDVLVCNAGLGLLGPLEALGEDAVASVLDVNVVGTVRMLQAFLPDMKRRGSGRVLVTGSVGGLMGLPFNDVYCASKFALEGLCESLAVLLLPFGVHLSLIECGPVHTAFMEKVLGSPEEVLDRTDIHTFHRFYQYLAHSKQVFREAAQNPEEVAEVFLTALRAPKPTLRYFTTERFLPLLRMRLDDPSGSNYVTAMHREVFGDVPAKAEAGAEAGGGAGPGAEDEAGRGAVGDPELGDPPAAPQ
Assay: Inhibition of recombinant human 17β-HSD1 (conversion of 3H-estrone to estradiol, HPLC)
Type: biochemical
Settings: inhibitor 1 μM; 30 nM estrone, 1 mM NADPH, 30 min RT; read-out: 17β-HDS1 Inhibition % at 1 μM
Label T when inhibition at 1 µM is at or above 80%; anything below gets F.

* CO/N=C1\C[C@@H](CCC(=O)Nc2ncc(C)s2)C2C3CCc4c(ccc(O)c4C#N)C3CC[C@]12C (stereo partly shown) [VIV-20] | F
* CO/N=C1\C[C@@H](CCC(=O)Nc2ncc(C)s2)C2C3CCc4cc(O)c(Cl)cc4C3CC[C@]12C (stereo partly shown) [VIV-12] | T
* Cc1cnc(NC(=O)CC[C@@H]2C/C(=N\O)[C@@]3(C)CCC4c5cc([N+](=O)[O-])c(O)cc5CCC4C23)s1 (stereo partly shown) [VIV-23] | T
* CO/N=C1\C[C@@H](CCC(=O)Nc2ncc(C)s2)C2C3CCc4c(cc(Br)c(O)c4F)C3CC[C@]12C (stereo partly shown) [VIV-17] | T
* CO/N=C1\C[C@@H](CCC(=O)Nc2ncc(C)s2)C2C3CCc4cc(O)ccc4C3CC[C@]12C (stereo partly shown) [VIV-1] | T
* Cc1cnc(NC(=O)CC[C@@H]2C/C(=N\O)[C@@]3(C)CCC4c5cc(Br)c(O)c(Br)c5CCC4C23)s1 (stereo partly shown) [VIV-27] | T
* Cc1cnc(NC(=O)CC[C@@H]2C/C(=N\O)[C@@]3(C)CCC4c5cc(Cl)c(O)c(Cl)c5CCC4C23)s1 (stereo partly shown) [VIV-30] | T
* Cc1cnc(NC(=O)CC[C@@H]2C/C(=N\O)[C@@]3(C)CCC4c5cc(F)c(O)cc5CCC4C23)s1 (stereo partly shown) [VIV-31] | T
* CO/N=C1\C[C@@H](CCC(=O)Nc2ncc(C)s2)C2C3CCc4c(ccc(O)c4[N+](=O)[O-])C3CC[C@]12C (stereo partly shown) [VIV-4] | T
* Cc1cnc(NC(=O)CC[C@@H]2C/C(=N\O)[C@@]3(C)CCC4c5ccc(O)c(Br)c5CCC4C23)s1 (stereo partly shown) [VIV-26] | T
* CO/N=C1\C[C@@H](CCC(=O)Nc2ncc(C)s2)C2C3CCc4c(cc(I)c(O)c4I)C3CC[C@]12C (stereo partly shown) [VIV-8] | F
* CO/N=C1\C[C@@H](CCC(=O)Nc2ncc(C)s2)C2C3CCc4cc(O)c(C#N)cc4C3CC[C@]12C (stereo partly shown) [VIV-19] | T
* Cc1cnc(NC(=O)CC[C@@H]2C/C(=N\O)[C@@]3(C)CCC4c5cc(Br)c(O)cc5CCC4C23)s1 (stereo partly shown) [VIV-25] | F
* CO/N=C1\C[C@@H](CCC(=O)Nc2ncc(C)s2)C2C3CCc4c(cc(F)c(O)c4Br)C3CC[C@]12C (stereo partly shown) [VIV-18] | F
* Cc1cnc(NC(=O)CC[C@@H]2C/C(=N\O)[C@@]3(C)CCC4c5cc(Cl)c(O)cc5CCC4C23)s1 (stereo partly shown) [VIV-28] | T
* CO/N=C1\C[C@@H](CCC(=O)Nc2ncc(C)s2)C2C3CCc4cc(O)c([N+](=O)[O-])cc4C3CC[C@]12C (stereo partly shown) [VIV-2] | F
* CO/N=C1\C[C@@H](CCC(=O)Nc2ncc(C)s2)C2C3CCc4cc(O)c(I)cc4C3CC[C@]12C (stereo partly shown) [VIV-6] | T
* CO/N=C1\C[C@@H](CCC(=O)Nc2ncc(C)s2)C2C3CCc4c(ccc(O)c4Cl)C3CC[C@]12C (stereo partly shown) [VIV-13] | T
* Cc1cnc(NC(=O)CC[C@@H]2C/C(=N\O)[C@@]3(C)CCC4c5ccc(O)c([N+](=O)[O-])c5CCC4C23)s1 (stereo partly shown) [VIV-24] | T
* Cc1cnc(NC(=O)CC[C@@H]2C/C(=N\O)[C@@]3(C)CCC4c5ccc(O)c(Cl)c5CCC4C23)s1 (stereo partly shown) [VIV-29] | T
